- Test Name: Compound was evaluated for its lipophilicity by 1-octanol/water (phosphate buffer, pH 7.0) and the partition coefficient (log P) was reported.
- Assay type: physicochemical
I'd appreciate it if you marked entries fulfilled when logD is lower than 2 and not fulfilled when it is not.

Dear reviewer, please state whether COC(=O)C(C)NP(=O)(OCC1CCC(n2cnc3c(N)ncnc32)O1)Oc1cccc(Br)c1 (stereo not drawn) has logD strictly beneath 2.
fulfilled

Dear reviewer, please state whether COC(=O)C(C)NP(=O)(OCC1C=CC(n2cnc3c(N)ncnc32)O1)Oc1ccccc1 (stereo not drawn) has logD strictly beneath 2.
fulfilled

Dear reviewer, please state whether COC(=O)C(C)NP(=O)(OCC1C=CC(n2cnc3c(N)ncnc32)O1)Oc1ccc(Br)cc1 (stereo not drawn) has logD strictly beneath 2.
fulfilled

Dear reviewer, please state whether Nc1ncnc2c1ncn2[C@H]1C=C[C@@H](CO)O1 has logD strictly beneath 2.
fulfilled

Dear reviewer, please state whether COC(=O)C(C)NP(=O)(OCC1C=CC(n2cnc3c(N)ncnc32)O1)Oc1ccc(I)cc1 (stereo not drawn) has logD strictly beneath 2.
not fulfilled

Dear reviewer, please state whether COC(=O)C(C)NP(=O)(OCC1CCC(n2cnc3c(N)ncnc32)O1)Oc1ccccc1 (stereo not drawn) has logD strictly beneath 2.
fulfilled

Dear reviewer, please state whether Nc1ncnc2c1ncn2[C@H]1CC[C@@H](CO)O1 has logD strictly beneath 2.
fulfilled

Dear reviewer, please state whether COC(=O)C(C)NP(=O)(OCC1CCC(n2cnc3c(N)ncnc32)O1)Oc1cccc(I)c1 (stereo not drawn) has logD strictly beneath 2.
not fulfilled

====

- Tested on: CCRF-CEM
- Test Name: Compound was evaluated for its effective concentration (potency) to inhibit the growth of HIV-2 in CEM cell culture.
- Assay type: functional, cell-based
- Protocol Conditions: Homo sapiens
Property: pEC50
// returns pEC50 (minus log10 of molar concentration), number only

Which value of pEC50 has been reported for COC(=O)C(C)NP(=O)(OCC1CCC(n2cnc3c(N)ncnc32)O1)Oc1ccccc1 (stereo unspecified) in the records?
7.46

Which value of pEC50 has been reported for COC(=O)C(C)NP(=O)(OCC1CCC(n2cnc3c(N)ncnc32)O1)Oc1cccc(Br)c1 (stereo unspecified) in the records?
8.48

Which value of pEC50 has been reported for COC(=O)C(C)NP(=O)(OCC1C=CC(n2cnc3c(N)ncnc32)O1)Oc1ccc(I)cc1 (stereo unspecified) in the records?
8.77

Which value of pEC50 has been reported for COC(=O)C(C)NP(=O)(OCC1C=CC(n2cnc3c(N)ncnc32)O1)Oc1ccc(Br)cc1 (stereo unspecified) in the records?
8.57

Which value of pEC50 has been reported for Nc1ncnc2c1ncn2[C@H]1CC[C@@H](CO)O1 in the records?
5.10

Which value of pEC50 has been reported for COC(=O)C(C)NP(=O)(OCC1CCC(n2cnc3c(N)ncnc32)O1)Oc1cccc(I)c1 (stereo unspecified) in the records?
8.57

====

- System: esterase
- Test Name: Compound was evaluated for esterase half-life (t 1/2) period using Pig Liver Esterase (PLE) assay
- Type: ADME, Sus scrofa
Assign half-life to each entry below.
Value expressed in h; do not type the unit.

Which value of half-life has been reported for COC(=O)C(C)NP(=O)(OCC1CCC(n2cnc3c(N)ncnc32)O1)Oc1ccccc1 (stereo unspecified) in the records?
301

Which value of half-life has been reported for COC(=O)C(C)NP(=O)(OCC1C=CC(n2cnc3c(N)ncnc32)O1)Oc1ccc(Br)cc1 (stereo unspecified) in the records?
100

Which value of half-life has been reported for COC(=O)C(C)NP(=O)(OCC1CCC(n2cnc3c(N)ncnc32)O1)Oc1cccc(I)c1 (stereo unspecified) in the records?
62

Which value of half-life has been reported for COC(=O)C(C)NP(=O)(OCC1C=CC(n2cnc3c(N)ncnc32)O1)Oc1ccccc1 (stereo unspecified) in the records?
301

Which value of half-life has been reported for COC(=O)C(C)NP(=O)(OCC1C=CC(n2cnc3c(N)ncnc32)O1)Oc1ccc(I)cc1 (stereo unspecified) in the records?
62

Which value of half-life has been reported for COC(=O)C(C)NP(=O)(OCC1CCC(n2cnc3c(N)ncnc32)O1)Oc1cccc(Br)c1 (stereo unspecified) in the records?
75
